Recorded values, source patent US20240385182A1.

Experiment: Photophysical characterization of probes and uncaged forms (relative fluorescence quantum yield, extinction coefficient, brightness)
Assay type: physicochemical
Recorded Emmax for the following molecules
Number first, unit second: that is the form wanted.

INSERT INTO assay_data (molecule, result_type, recorded_value) VALUES
  ('O=C1OC2(c3ccc(O)cc3Oc3cc(O)ccc32)c2ccc(-n3cc(COCCOCCOCCO)nn3)cc21', 'Emmax', '522.6 nm');

Task: Given CCCCCCCCCCCCCCCC(=O)OCC(COP(=O)([O-])OCC[N+](C)(C)Cc1cn(-c2cc3ccc(OCc4ccc(N=[N+]=[N-])cc4)cc3oc2=O)nn1)OC(=O)CCCCCCCCCCCCCCC (racemic) , state its recorded Emmax.
Result: 473.5 nm

Task: Name the reported Emmax value associated with the molecule CCCCCCCCCCCCCCCC(=O)OCC(COP(=O)([O-])OCC[N+](C)(C)Cc1cn(-c2ccc3c(c2)C(=O)OC32c3ccc(OC(=O)OCc4ccc(B5OC(C)(C)C(C)(C)O5)cc4)cc3Oc3cc(OC(=O)OCc4ccc(B5OC(C)(C)C(C)(C)O5)cc4)ccc32)nn1)OC(=O)CCCCCCCCCCCCCCC (racemic)
Result: 519.5 nm

Task: Give its Emmax value. Item: CCCCCCCCCCCCCCCC(=O)OCC(COP(=O)([O-])OCC[N+](C)(C)Cc1cn(-c2cc3ccc(O)cc3oc2=O)nn1)OC(=O)CCCCCCCCCCCCCCC (racemic)
Result: 472.0 nm

###

Assay: Photophysical characterization of probes and uncaged forms (relative fluorescence quantum yield, extinction coefficient, brightness)
Format: physicochemical
Conditions: Table 3; brightness compared to that of DPPC-TF-H2O2
Procedure: The pKa of TEG-TC was determined to be 7.1±0.1 using UV-Vis spectrophotometric measurements. […] The change in coumarin fluorogenicity was assessed upon uncaging the probes from the oxobutylphenyl carbonate by measuring the relative fluorescence quantum yield (ΦFrel) values (Table 2). Coumarin 343 was used as a standard, which has an absolute fluorescence quantum yield (ΦFrel) of 0.63 in ethanol. […]
Relative Brightness for assorted compounds
Lab note: write the figure by itself, no unit.

INSERT INTO assay_data (compound, recorded_value) VALUES
  ('CC1(C)OB(c2ccc(COC(=O)Oc3ccc4c(c3)Oc3cc(OC(=O)OCc5ccc(B6OC(C)(C)C(C)(C)O6)cc5)ccc3C43OC(=O)c4cc(-n5cc(COCCOCCOCCO)nn5)ccc43)cc2)OC1(C)C', 2.5),
  ('CCCCCCCCCCCCCCCC(=O)OCC(COP(=O)([O-])OCC[N+](C)(C)Cc1cn(-c2ccc3c(c2)C(=O)OC32c3ccc(O)cc3Oc3cc(O)ccc32)nn1)OC(=O)CCCCCCCCCCCCCCC (racemic)', 85.3);

Task: Look up Relative Brightness for this compound: "O=C1OC2(c3ccc(O)cc3Oc3cc(O)ccc32)c2ccc(-n3cc(COCCOCCOCCO)nn3)cc21"
Result: 122.7

Task: For the compound shown here, CCCCCCCCCCCCCCCC(=O)OCC(COP(=O)([O-])OCC[N+](C)(C)Cc1cn(-c2ccc3c(c2)C(=O)OC32c3ccc(OC(=O)OCc4ccc(B5OC(C)(C)C(C)(C)O5)cc4)cc3Oc3cc(OC(=O)OCc4ccc(B5OC(C)(C)C(C)(C)O5)cc4)ccc32)nn1)OC(=O)CCCCCCCCCCCCCCC (racemic) , give the reported Relative Brightness.
Result: 1.0
